Cited source: patent US10544130B2

system: Pseudomonas aeruginosa PAO1 MB9798 (efflux+, IMP-1); settings: ratio MITC95 PA 9798/MITC95 PA 9799; imipenem at 2 μg/mL

COMPOUND	Efflux ratio
CNc1nc2c(-c3ccc(S(=O)(=O)N[C@H]4CCNC4)c(S(N)(=O)=O)c3-c3nn[nH]n3)cccc2[nH]1	1.00
NCCNS(=O)(=O)c1ccc(-c2cccc(SCC(N)CO)c2)c(-c2nn[nH]n2)c1S(N)(=O)=O (stereo not shown)	4.00
Nc1nc2c(-c3ccc(S(=O)(=O)NC4CNC4)c(S(N)(=O)=O)c3-c3nn[nH]n3)cccc2[nH]1	0.68
CN1CC[C@@H](NS(=O)(=O)c2ccc(-c3cccc4[nH]c(N)nc34)c(-c3nn[nH]n3)c2S(N)(=O)=O)C1	2.00
Nc1nc2c(-c3ccc(S(=O)(=O)NC4CCC5OC4CC5N)c(S(N)(=O)=O)c3-c3nnn[nH]3)cccc2s1.O=C(O)C(F)(F)F (stereo not shown)	1.00
COCCNCCNS(=O)(=O)c1ccc(-c2cccc3sc(N)nc23)c(-c2nnn[nH]2)c1S(N)(=O)=O	1.00
CC(N)CNS(=O)(=O)c1ccc(-c2cccc3sc(N)nc23)c(-c2nnn[nH]2)c1S(N)(=O)=O.O=C(O)C(F)(F)F (stereo not shown)	0.50

###

system: Pseudomonas aeruginosa PAO1 MB9798 (efflux+, IMP-1); settings: ratio MITC95 PA 9798/MITC95 PA 9799; imipenem at 2 μg/mL
QUANTITY_NAME: Efflux ratio

COMPOUND	RESULT_VALUE
Nc1nc2c(-c3ccc(S(=O)(=O)N4CC[C@@H](N)C4)c(S(N)(=O)=O)c3-c3nnn[nH]3)cccc2s1	1.00
NC(=O)c1ccc(-c2ccc(S(=O)(=O)N[C@@H]3CCNC3)c(S(N)(=O)=O)c2-c2nnn[nH]2)cc1	1.00
NCCn1nc2cccc(-c3ccc(S(=O)(=O)N[C@@H]4CCNC4)c(S(N)(=O)=O)c3-c3nn[nH]n3)c2n1	1.00
NCCNS(=O)(=O)c1ccc(C2CCC[C@H](N)C2)c(-c2nn[nH]n2)c1S(N)(=O)=O (stereo partly drawn)	4.00
Nc1nc2c(-c3ccc(S(=O)(=O)NC4CC5CNC4C5)c(S(N)(=O)=O)c3-c3nnn[nH]3)cccc2s1 (stereo not drawn) [Example 88]	0.50
NCCNS(=O)(=O)c1ccc(-c2cccc(NC[C@H](O)CN)c2)c(-c2nn[nH]n2)c1S(N)(=O)=O	2.00
NS(=O)(=O)c1c(S(=O)(=O)N[C@@H]2CCNC2)ccc(-c2cccnc2N2CCNCC2)c1-c1nn[nH]n1	4.00
CN([C@H]1CCNC1)S(=O)(=O)c1ccc(-c2cccc3[nH]c(N)nc23)c(-c2nn[nH]n2)c1S(N)(=O)=O	2.00
Nc1ccc(-c2ccc(S(=O)(=O)NC[C@@H](N)CO)c(S(N)(=O)=O)c2-c2nn[nH]n2)cn1	2.00
Nc1nc2c(-c3ccc(S(=O)(=O)NCCO)c(S(N)(=O)=O)c3-c3nn[nH]n3)cccc2s1	1.00
NCCNS(=O)(=O)c1ccc(-c2cnc3cc[nH]c3c2)c(-c2nn[nH]n2)c1S(N)(=O)=O	2.00
Nc1nc2c(-c3ccc(S(N)(=O)=O)c(S(N)(=O)=O)c3-c3nn[nH]n3)cccc2s1	0.50
NCc1nc2c(-c3ccc(S(=O)(=O)NC(CN)CN)c(S(N)(=O)=O)c3-c3nn[nH]n3)cccc2[nH]1	1.00
NC[C@H](O)CNS(=O)(=O)c1ccc(-c2cccc3[nH]cnc23)c(-c2nn[nH]n2)c1S(N)(=O)=O	1.00
Nc1nc2cccc(-c3ccc(S(N)(=O)=O)c(S(N)(=O)=O)c3-c3nn[nH]n3)c2[nH]1	0.65
